protein stability index overview
B1: CLCN6 (parent)
chain: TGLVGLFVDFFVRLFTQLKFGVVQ

# Variants of: B1
# experimental protocol: protein stability index of a GFP-peptide fusion (GPS, HEK-293T) (PSI 1-6); higher = more stable;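 note: lentivirally expressed fusions sorted by FACS into six bins by GFP to DsRed ratio, PSI derived from sequencing read proportions per bin multiplied by bin number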
# measurement conditions: c terminus: a fixed tail appended

| changes | protein stability index |
| --- | --- |
| L6T | 2.71 |
| V8G | 2.9 |
| R13T | 2.19 |
| F11L | 2.32 |
| G21W | 3.59 |
| T16I | 2.41 |
| Q17F | 2.44 |
| V8Q | 2.05 |
| F7N | 1.84 |
| F11Q | 3.25 |
| L6W | 3.31 |
| K19D | 3.05 |
| L3Y | 2.63 |
| V4H | 2.28 |
| T16N | 3.55 |
| V22K | 2.26 |
| Q24I | 2.66 |
| L14R | 1.86 |
| V8I | 1.74 |
| G21V | 3 |
| T1Q | 2.17 |
| K19G | 1.98 |
| L18T | 2.75 |
| V12E | 1.96 |
| G5D | 2.47 |
| V23C | 2.78 |
| F11D | 4.03 |
| F11A | 2.84 |
| V4L | 2.33 |
| L14W | 2.8 |
| V12P | 1.78 |
| F11T | 2.01 |
